In this section, each of the compounds is paired with its reported pIC50.
# system: NaV1.6 (Homo sapiens (Human), UniProt Q9UQD0)
# assayText: Sodium Influx Assay (Flux), NaV1.6;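 note: Tetracycline-induced cells, compounds applied for one hour at room temperature with modulators holding channels open, IC50 from percent inhibition of sodium influx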
# Type: cell-based
# measurementConditions: Trex HEK293 cells, ANG2 dye, inactivated state
pIC50: −log10 of the molar value. Counter-ions that a name gives are not always drawn.
observable: pIC50

* O=S(=O)(Nc1nccs1)c1cc(Cl)c(N[C@H](CN2CC(F)C2)c2ccccc2)cc1F [Example 68, 2,2,2-trifluoroacetate] | 5.74
* CCC(C)(C)N(C)Cc1cccc(F)c1CNc1cc(F)c(S(=O)(=O)Nc2cscn2)c(F)c1 [Example 184, formate] | 6.48
* O=S(=O)(Nc1cscn1)c1c(F)cc(NCc2c(F)cccc2CN2CCC23CCC3)cc1F [Example 173, formate] | 7.30
* C[C@H](Oc1cc(F)c(S(=O)(=O)Nc2nccs2)cc1Cl)c1cccc(F)c1 | 6.01
* CN(C)Cc1ccccc1C1(Nc2cc(F)c(S(=O)(=O)Nc3cscn3)cc2Cl)CC1 [Example 217, 2,2,2-trifluoroacetate] | 6.15
* C[C@H](Nc1cc(F)c(S(=O)(=O)Nc2ccon2)c(F)c1)c1cc(F)ccc1F | 5.50
* O=S(=O)(Nc1nccs1)c1cc(Cl)c(NC2CCCc3ncccc32)cc1F (stereo not shown) [Example 98, formate] | 6.52

====

# system: NaV1.1 (Homo sapiens (Human), UniProt P35498)
# assayText: Sodium Influx Assay (Flux), NaV1.1;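 note: channels co-expressed with human β1 subunit and held open by modulators, cells exposed to compounds for one hour at room temperature, IC50 from percent inhibition of influx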
# Format: cell-based
# measurementConditions: Trex HEK293 cells, ANG2 dye, inactivated state
Counter-ions that a name gives are not always drawn.
observable: log10 of IC50 (log10 of the value in µM)

* COc1ccc(F)c([C@H](C)Nc2cc(F)c(S(=O)(=O)Nc3cscn3)c(F)c2)c1 | 0.81
* C[C@H](Oc1cc(F)c(S(=O)(=O)Nc2nccs2)cc1Cl)c1cc(Cl)ccc1F | 0.91
* Cc1cc(N[C@@H](C)c2ccccc2F)c(Cl)cc1S(=O)(=O)Nc1nccs1 | 0.44
* C[C@H](Nc1ccc(S(=O)(=O)Nc2ccncn2)cc1C(F)(F)F)c1cc(F)ccc1F | 1.48
* CN1CC(Oc2cccc(F)c2CNc2cc(F)c(S(=O)(=O)Nc3cscn3)c(F)c2)C1 [Example 326, formate] | 0.90
* O=S(=O)(Nc1cscn1)c1c(F)cc(NCc2cccc(F)c2CN2CCC2)cc1F [Example 196, 2,2,2-trifluoroacetate] | 1.41
* CCc1cccc(CN2CCC2)c1CNc1cc(F)c(S(=O)(=O)Nc2cscn2)c(F)c1 [Example 210, 2,2,2-trifluoroacetate] | 0.57
* CC[C@H](Nc1cc(F)c(S(=O)(=O)Nc2cscn2)cc1Cl)c1ccccc1 | 0.59

====

# system: NaV1.5 (Homo sapiens (Human), UniProt Q14524)
# Sequence (Q14524 other isoform, or with tags, fused parts or gaps): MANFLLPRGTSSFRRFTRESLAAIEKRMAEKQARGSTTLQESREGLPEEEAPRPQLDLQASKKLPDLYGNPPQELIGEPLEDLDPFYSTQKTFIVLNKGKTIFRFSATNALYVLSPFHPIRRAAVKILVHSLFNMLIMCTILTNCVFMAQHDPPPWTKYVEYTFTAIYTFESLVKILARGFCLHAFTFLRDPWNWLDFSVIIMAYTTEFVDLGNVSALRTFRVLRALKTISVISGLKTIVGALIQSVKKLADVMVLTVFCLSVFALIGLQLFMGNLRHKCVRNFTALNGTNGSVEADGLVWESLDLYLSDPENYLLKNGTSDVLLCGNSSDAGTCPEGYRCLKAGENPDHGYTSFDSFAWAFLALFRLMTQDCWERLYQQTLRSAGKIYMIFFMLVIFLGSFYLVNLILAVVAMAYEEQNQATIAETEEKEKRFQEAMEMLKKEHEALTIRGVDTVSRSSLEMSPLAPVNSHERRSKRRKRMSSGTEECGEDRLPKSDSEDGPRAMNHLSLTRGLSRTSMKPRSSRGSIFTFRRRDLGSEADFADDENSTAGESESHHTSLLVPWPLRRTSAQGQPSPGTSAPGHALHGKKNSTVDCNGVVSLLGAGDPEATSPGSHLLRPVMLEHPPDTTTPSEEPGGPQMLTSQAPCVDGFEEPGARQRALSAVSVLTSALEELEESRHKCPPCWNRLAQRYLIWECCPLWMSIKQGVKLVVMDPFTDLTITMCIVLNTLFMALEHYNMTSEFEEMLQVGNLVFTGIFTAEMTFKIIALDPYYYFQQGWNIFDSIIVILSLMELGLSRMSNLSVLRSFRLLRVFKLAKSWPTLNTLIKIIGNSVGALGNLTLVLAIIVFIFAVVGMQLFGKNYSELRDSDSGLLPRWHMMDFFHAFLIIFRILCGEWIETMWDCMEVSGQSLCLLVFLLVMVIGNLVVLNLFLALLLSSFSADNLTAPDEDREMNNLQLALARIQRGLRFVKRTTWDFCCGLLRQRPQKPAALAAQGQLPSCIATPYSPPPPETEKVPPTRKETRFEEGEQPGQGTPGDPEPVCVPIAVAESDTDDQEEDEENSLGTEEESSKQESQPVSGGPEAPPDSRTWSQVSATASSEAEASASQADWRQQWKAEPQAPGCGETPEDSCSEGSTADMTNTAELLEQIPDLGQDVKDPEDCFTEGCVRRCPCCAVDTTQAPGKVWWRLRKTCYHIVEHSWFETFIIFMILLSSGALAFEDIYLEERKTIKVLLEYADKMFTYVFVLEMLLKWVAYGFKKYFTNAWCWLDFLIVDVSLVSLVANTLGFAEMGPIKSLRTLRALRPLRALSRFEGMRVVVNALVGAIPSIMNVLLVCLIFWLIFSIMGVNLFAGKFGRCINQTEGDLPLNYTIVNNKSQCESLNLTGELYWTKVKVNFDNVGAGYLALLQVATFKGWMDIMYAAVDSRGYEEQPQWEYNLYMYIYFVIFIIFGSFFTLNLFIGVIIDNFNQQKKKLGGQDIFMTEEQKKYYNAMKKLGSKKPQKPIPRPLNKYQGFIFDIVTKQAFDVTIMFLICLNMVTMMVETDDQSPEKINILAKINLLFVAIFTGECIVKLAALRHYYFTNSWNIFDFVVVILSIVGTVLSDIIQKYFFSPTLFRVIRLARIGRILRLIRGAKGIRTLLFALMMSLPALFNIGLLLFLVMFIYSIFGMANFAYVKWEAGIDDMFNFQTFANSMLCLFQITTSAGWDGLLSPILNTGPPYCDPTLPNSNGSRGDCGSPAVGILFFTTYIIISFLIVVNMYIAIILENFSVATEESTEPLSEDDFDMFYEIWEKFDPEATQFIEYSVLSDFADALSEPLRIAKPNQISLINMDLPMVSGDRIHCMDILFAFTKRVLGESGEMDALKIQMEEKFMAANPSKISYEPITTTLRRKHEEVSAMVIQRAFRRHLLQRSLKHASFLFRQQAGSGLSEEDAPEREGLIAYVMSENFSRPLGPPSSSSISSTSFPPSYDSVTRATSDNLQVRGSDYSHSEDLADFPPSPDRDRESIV
# assayText: Sodium Influx Assay (Flux), NaV1.5
# measurementConditions: read-out: Flux NaV1.5 IC50; Trex HEK293 cells, ANG2 dye, inactivated state
Structures can show the parent of a compound that is named as a salt.
observable: IC50 (µM)

* CN(C)Cc1ccccc1CNc1cc(F)c(S(=O)(=O)Nc2cscn2)c(F)c1 | 30
* O=S(=O)(Nc1nccs1)c1cc(Cl)c(NC2CCCc3ncccc32)cc1F (stereo not shown) [Example 98, formate] | 11
* Cc1cc(S(=O)(=O)Nc2ccncn2)c(F)cc1N[C@@H](C)c1cc(Cl)ccc1F | 30
* C[C@H](Nc1ccc(S(=O)(=O)Nc2cscn2)c(F)c1Cl)c1c(F)cccc1F | 6.39
* C[C@H](Nc1c(Cl)cc(S(=O)(=O)Nc2nccs2)cc1Cl)c1ccccc1F | 2.89
* CN1CC2(C1)CN(Cc1cccc(Cl)c1CNc1cc(F)c(S(=O)(=O)Nc3cscn3)cc1Cl)C2 [Example 292, 2,2,2-trifluoroacetate] | 8.4
* CC1(F)CN(Cc2cccc(F)c2CNc2cc(F)c(S(=O)(=O)Nc3ccon3)c(F)c2)C1 [Example 337, formate] | 30
* C[C@@H](Oc1cc(F)c(S(=O)(=O)Nc2nccs2)cc1Cl)c1ccccc1F | 2.15
* C[C@H](Oc1cc(F)c(S(=O)(=O)Nc2nccs2)cc1Cl)c1cc(Cl)ccc1F | 30
* CC[C@H](Nc1cc(F)c(S(=O)(=O)Nc2nccs2)cc1Cl)c1ccccc1C | 13.5
* CN(Cc1ccccc1CNc1cc(F)c(S(=O)(=O)Nc2cscn2)c(F)c1)C(C)(C)C [Example 202, 2,2,2-trifluoroacetate] | 30
* O=S(=O)(Nc1nccs1)c1cc(Cl)c(NC(CC(F)(F)F)c2ccccc2)cc1F (stereo not shown) | 11.8
* C[C@H](Nc1cc(F)c(S(=O)(=O)Nc2cscn2)cc1Cl)c1cc(OC(F)F)ccc1F | 11
* O=S(=O)(Nc1ccsn1)c1c(F)cc(NCc2c(F)cccc2CN2CCC2)cc1F [Example 188, 2,2,2-trifluoroacetate] | 30
* C[C@@H](Nc1cc(F)c(S(=O)(=O)Nc2cscn2)cc1Cl)c1cccc(CN(C)C)c1 [Example 254, formate] | 3.62
* O=S(=O)(Nc1nccs1)c1ccc(NC(c2ccccc2)C2CC2)c(Cl)c1 (stereo not shown) | 9.27
